Reference source for all entries: PubChem BioAssay AID1963850

I'd appreciate it if you could supply IC50 values for the items below.
# Test system: 192522-019-R-J2-PDC complex tumor spheroid viability
# measurement_protocol: Anticancer human tumor 192522-019-R-J2-PDC patient-derived colon adenocarcinoma cell line growth inhibition [POLQ]
# condition_notes: curve of first compound; second compound 3.16 µM

| compound | IC50 |
| --- | --- |
| O=C(Nc1ccc(O)c(NS(=O)(=O)c2ccc(F)cc2)c1)c1ccc(-c2ccccc2)cc1 + COC1C(OC(N)=O)C(O)C(Oc2ccc3c(O)c(NC(=O)c4ccc(O)c(CC=C(C)C)c4)c(=O)oc3c2C)OC1(C)C | > 10 µM |
| CC(=O)O[C@H]1C(=O)[C@@]2(C)[C@H]([C@H](OC(=O)c3ccccc3)[C@]3(O)C[C@H](OC(=O)[C@H](O)[C@@H](NC(=O)c4ccccc4)c4ccccc4)C(C)=C1C3(C)C)[C@]1(OC(C)=O)CO[C@@H]1C[C@@H]2O + COC1C(OC(N)=O)C(O)C(Oc2ccc3c(O)c(NC(=O)c4ccc(O)c(CC=C(C)C)c4)c(=O)oc3c2C)OC1(C)C | > 3 µM |
| COc1cc2cc(C(=O)CCC(=O)O)sc2cc1OC + Cc1cccc(N(C)C(=O)C2C(O)CCN2c2nc(C)cc(C(F)(F)F)c2C#N)c1 | > 10 µM |

Hey, can you go through the list below and give me IC50 for every item?
1. CC(C)n1c(=O)n(C)c2cnc3cc(F)c(-c4ccc(OCCCN5CCCCC5)nc4)cc3c21 + Nc1ccc(C#CCN(C(=O)Cc2ncc(C(F)(F)F)cc2C(F)(F)F)c2ccc(F)cc2)nn1
2. CCc1c2c(nc3ccc(O)cc13)-c1cc3c(c(=O)n1C2)COC(=O)[C@]3(O)CC + Nc1ccc(C#CCN(C(=O)Cc2ncc(C(F)(F)F)cc2C(F)(F)F)c2ccc(F)cc2)nn1

Reply:
1. > 10 µM
2. 0.16 µM

###

# System: 192522-019-R-J2-PDC complex tumor spheroid viability
# measurement_protocol: Anticancer human tumor 192522-019-R-J2-PDC cell line growth inhibition [POLQ];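 also: spheroids exposed to drugs for seven days before reading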;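 as to viability, T/C: 100% = DMSO vehicle control viability in luminescence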
# condition_notes: second compound 0.316 µM; first compound 3.16 µM; stronger effect = lower value
I'd appreciate it if you could supply viability, T/C values for the items below.
Answers are plain numbers, in %.

| molecule | units_label | viability, T/C |
| --- | --- | --- |
| CC(C)n1c(=O)n(C)c2cnc3cc(F)c(-c4ccc(OCCCN5CCCCC5)nc4)cc3c21 + Cc1cccc(N(C)C(=O)C2C(O)CCN2c2nc(C)cc(C(F)(F)F)c2C#N)c1 | % | 127 |
| C#Cc1c(F)ccc2cc(O)cc(-c3ncc4c(N5CC6CCC(C5)N6)nc(OCC56CCCN5CC(F)C6)nc4c3F)c12 (stereo not given) + COC1C(OC(N)=O)C(O)C(Oc2ccc3c(O)c(NC(=O)c4ccc(O)c(CC=C(C)C)c4)c(=O)oc3c2C)OC1(C)C | % | 78.9 |
| COc1cc2cc(C(=O)CCC(=O)O)sc2cc1OC + Nc1ccc(C#CCN(C(=O)Cc2ncc(C(F)(F)F)cc2C(F)(F)F)c2ccc(F)cc2)nn1 | % | 93.8 |
| CC1COCCN1c1cc(-c2ccnn2C)c2ccnc(-c3ccn[nH]3)c2n1 (stereo not given) + Nc1ccc(C#CCN(C(=O)Cc2ncc(C(F)(F)F)cc2C(F)(F)F)c2ccc(F)cc2)nn1 | % | 45.6 |
| COc1cc(C2c3cc4c(cc3C(OC3OC5COC(C)OC5C(O)C3O)C3COC(=O)C23)OCO4)cc(OC)c1O (stereo not given) + COC1C(OC(N)=O)C(O)C(Oc2ccc3c(O)c(NC(=O)c4ccc(O)c(CC=C(C)C)c4)c(=O)oc3c2C)OC1(C)C | % | 55.2 |

Hey, can you go through the list below and give me viability, T/C for every item?
1. CC(C)n1c(=O)n(C)c2cnc3cc(F)c(-c4ccc(OCCCN5CCCCC5)nc4)cc3c21 + COC1C(OC(N)=O)C(O)C(Oc2ccc3c(O)c(NC(=O)c4ccc(O)c(CC=C(C)C)c4)c(=O)oc3c2C)OC1(C)C
2. CCc1cc2c(N3CCc4c(cc(Cn5ccnc5)cc4-c4cn(C)nc4C(F)(F)F)C3=O)ccnc2c(OC)n1 + COC1C(OC(N)=O)C(O)C(Oc2ccc3c(O)c(NC(=O)c4ccc(O)c(CC=C(C)C)c4)c(=O)oc3c2C)OC1(C)C
3. CCc1cc2c(N3CCc4c(cc(Cn5ccnc5)cc4-c4cn(C)nc4C(F)(F)F)C3=O)cc(C)nc2c(OC)n1 + Nc1ccc(C#CCN(C(=O)Cc2ncc(C(F)(F)F)cc2C(F)(F)F)c2ccc(F)cc2)nn1
4. C#Cc1c(F)ccc2cc(O)cc(-c3ncc4c(N5CC6CCC(C5)N6)nc(OCC56CCCN5CC(F)C6)nc4c3F)c12 (stereo not given) + Nc1ccc(C#CCN(C(=O)Cc2ncc(C(F)(F)F)cc2C(F)(F)F)c2ccc(F)cc2)nn1
5. O=C(Nc1ccc(O)c(NS(=O)(=O)c2ccc(F)cc2)c1)c1ccc(-c2ccccc2)cc1 + Cc1cccc(N(C)C(=O)C2C(O)CCN2c2nc(C)cc(C(F)(F)F)c2C#N)c1

Reply:
[120, 68.3, 72.8, 68.2, 103]
